Species: Homo sapiens
Experimental Protocol: Selectivity ratio of IC50 for PI3Kgamma (unknown origin) using PIP2:3PS peptide as substrate preincubated for 15 mins followed by ATP addition at Km concentration and further incubated for 120 mins by ADP-Glo assay to IC50 for PI3Kalpha (unknown origin) using PIP2:3PS peptide as substrate preincubated for 15 mins followed by ATP addition at Km concentration and further incubated for 150 mins by ADP-Glo assay
Parameter: Ratio IC50
Reply with the value as a number alone.

Smiles Text	Ratio IC50
COc1ncc(-c2ccc3ncn(C[C@@H](C)C(=O)NCCO)c(=O)c3c2)cc1NS(=O)(=O)c1ccc(F)cc1Cl	6.34
COc1ncc(-c2ccc3ncn(CCC(N)=O)c(=O)c3c2)cc1NS(=O)(=O)c1ccc(F)cc1Cl	3.94
CNC(=O)[C@H](C)Cn1cnc2ccc(-c3cnc(OC)c(NS(=O)(=O)c4sc(C)nc4C)c3)cc2c1=O	11.7
CNC(=O)[C@H](C)Cn1cnc2ccc(-c3cnc(OC)c(NS(=O)(=O)c4ccc(F)cc4)c3)cc2c1=O	12.3
COc1ncc(-c2ccc3ncn(C[C@@H](C)C(=O)NC(C)C)c(=O)c3c2)cc1NS(=O)(=O)c1ccc(F)cc1Cl	9.87

q: Return reported Ratio IC50; argument: CCN(CC)C(=O)[C@H](C)Cn1cnc2ccc(-c3cnc(OC)c(NS(=O)(=O)c4ccc(F)cc4Cl)c3)cc2c1=O
a: 1.04

q: Item CNC(=O)[C@H](C)Cn1cnc2ccc(-c3cnc(OC)c(NS(=O)(=O)c4c(C)noc4C)c3)cc2c1=O has what recorded Ratio IC50?
a: 10

q: Need Ratio IC50, item COc1ncc(-c2ccc3ncn(C[C@@H](C)C(=O)NCC(F)(F)F)c(=O)c3c2)cc1NS(=O)(=O)c1ccc(F)cc1Cl
a: 9.87

q: Sample COc1ncc(-c2ccc3ncn(C[C@@H](C)C(=O)NCCF)c(=O)c3c2)cc1NS(=O)(=O)c1ccc(F)cc1Cl — what was its Ratio IC50?
a: 7.41

q: // query Ratio IC50 value for entry COCCNC(=O)[C@H](C)Cn1cnc2ccc(-c3cnc(OC)c(NS(=O)(=O)c4ccc(F)cc4Cl)c3)cc2c1=O
a: 9.22

q: May I ask what Ratio IC50 has been recorded for CNC(=O)[C@H](C)Cn1cnc2ccc(-c3cnc(C)c(NS(=O)(=O)c4ccc(F)cc4Cl)c3)cc2c1=O ?
a: 21

q: Would you kindly share the measured Ratio IC50 for COc1ncc(-c2ccc3ncn(C[C@@H](C)C(=O)NCC(C)C)c(=O)c3c2)cc1NS(=O)(=O)c1ccc(F)cc1Cl ?
a: 6.38

// data source = ChEMBL document CHEMBL4619796
